Below is a list of entries, each paired with its recorded log10(MIC) value.
- System: Candida kefyr ATCC 28838
- Assay overview: In vitro antifungal MIC, Candida kefyr ATCC 28838
- Type: cell-based
- Measurement context: Kluyveromyces marxianus, ATCC28838; Candida kefyr ATCC 28838; 35°-37° C., 48 hours; read-out: MIC
Heads up: the numbers are on a log10 scale; they represent MIC in µg/mL.

The compound listed as CC(C)(C)N1Sc2ccccc2[S+]1[O-] (stereo not drawn) [Example 14, 2-t-butyl-1,3,2-benzodithiazole-1-oxide] shows log10(MIC) equal to -0.70

Per the records, this compound ( O=C(O)COCCN1Sc2ccccc2[S+]1[O-] (stereo not drawn) [Example 22] ) has log10(MIC) equal to 0.49

Record CCCCCN1Sc2ccccc2[S+]1[O-] (stereo not drawn) [Example 4, 2-n-pentyl-1,3,2-benzodithiazole-1-oxide] , field log10(MIC): -0.11

Notebook: CS(=O)(=O)OCCN1Sc2ccccc2[S+]1[O-] (stereo not drawn) [Example 19] , log10(MIC) read as 0.19

Consider CCOC(CCCN1Sc2ccccc2[S+]1[O-])OCC (stereo not drawn) [Example 25] . Its measured log10(MIC) is 0.49
